- TEST_SUMMARY: folding enthalpy; higher = less favourable; fluorescence melt of hairpins on a sequencing array, two-state fit
- MEASUREMENT_SETUP: sodium 0.088 M
Readings of folding enthalpy for the listed sequences
Report as a plain number; the unit kcal/mol is understood.

[
  {
    "ORDERED_RESIDUES": "GCCTTGCGAAAGCGTGGC (((..((....))..)))",
    "VALUE_UNIT": "kcal/mol",
    "RESULT_NUMBER": -22.8
  },
  {
    "ORDERED_RESIDUES": "GCAGAGGAAACTCTGC ((((((....))))))",
    "VALUE_UNIT": "kcal/mol",
    "RESULT_NUMBER": -35.2
  },
  {
    "ORDERED_RESIDUES": "CGCCCGGAAACGGAGCG ((((((....))).)))",
    "VALUE_UNIT": "kcal/mol",
    "RESULT_NUMBER": -31.8
  }
]

Recorded folding enthalpy (sequence GTCGCTCGAAAGAGAGAC (((.(((....))).))) ): -42.9

response.value for GCGGCCGGAAACGGCCAC (.(((((....))))).) (field: folding enthalpy) = -9.59

Entry GATCACACGTGTGATC ((((((....)))))) ; folding enthalpy = -43.5

----------
- TEST_SUMMARY: folding enthalpy; higher = less favourable; fluorescence melt of hairpins on a sequencing array, two-state fit
- MEASUREMENT_SETUP: sodium 0.088 M
Please use Condition met whenever folding enthalpy is not below -30 kcal/mol, and Condition not met whenever it is.

[
  {
    "ORDERED_RESIDUES": "GCATCCGGAAACGGATAC (.(((((....))))).)",
    "ANSWER_LABEL": "Condition met"
  },
  {
    "ORDERED_RESIDUES": "GATCATGACGATGATC ((((((....))))))",
    "ANSWER_LABEL": "Condition not met"
  },
  {
    "ORDERED_RESIDUES": "GATCTGAACGCAGATC ((((((....))))))",
    "ANSWER_LABEL": "Condition met"
  },
  {
    "ORDERED_RESIDUES": "GGCTGTGGAAACATGGCC (((..((....))..)))",
    "ANSWER_LABEL": "Condition not met"
  },
  {
    "ORDERED_RESIDUES": "GAACAAGAAATTGTTC ((((((....))))))",
    "ANSWER_LABEL": "Condition met"
  }
]

With those in mind, consider the next sequence.
Hi team, for GTGTCCGAAAGGATCCAC ((((((....)))..))) , is the recorded folding enthalpy at or above -30 kcal/mol?
Condition met

----------
- TEST_SUMMARY: folding enthalpy; higher = less favourable; fluorescence melt of hairpins on a sequencing array, two-state fit
- MEASUREMENT_SETUP: sodium 0.088 M
QUANTITY_NAME: folding enthalpy (kcal/mol)
Just the number please, in kcal/mol, no unit attached.

See these solved cases before continuing.
[
  {
    "ORDERED_RESIDUES": "GTGGCTGGAAACAGTCGC (.(.(((....))).).)",
    "VALUE_UNIT": "kcal/mol",
    "folding enthalpy": -24.6
  },
  {
    "ORDERED_RESIDUES": "GCACTGCGAAAGCATTGC (((.(((....))).)))",
    "VALUE_UNIT": "kcal/mol",
    "folding enthalpy": -42.6
  },
  {
    "ORDERED_RESIDUES": "GCGCCGGGAAACCGACGC (((.(((....))).)))",
    "VALUE_UNIT": "kcal/mol",
    "folding enthalpy": -46.8
  },
  {
    "ORDERED_RESIDUES": "GGGGGGGGAAACCCCCTC (.(((((....))))).)",
    "VALUE_UNIT": "kcal/mol",
    "folding enthalpy": -12.5
  },
  {
    "ORDERED_RESIDUES": "GTTATCGAAAGATACAAC ((((((....)))..)))",
    "VALUE_UNIT": "kcal/mol",
    "folding enthalpy": -9.31
  }
]

Entry under test: GCTAACGCGAAAGCGAGC (((..(((....)))))) . Its folding enthalpy was -15.2

Noted for GCAGTCGAAAGACGTTGC ((((((....)))..))) : its folding enthalpy reads -17

Quick note, folding enthalpy for GAGAACGAAAGTTGTCTC ((((((....)))..))) landed at -27.2

folding enthalpy measured on GTACGCGAAAGCGAATAC ((((((....)))..))) = -8.59

For reference, reported folding enthalpy for GGTGGCGAAAGCCTGACC ((((((....)))..))) stands at -14.2

Sure, the documented folding enthalpy for GCCCGCGAAAGCGACGGC ((((((....)))..))) is -22.3

Briefly, folding enthalpy measured for GATCGTACCCACGATC ((((((....)))))) : -40

----------
- TEST_SUMMARY: folding enthalpy; higher = less favourable; fluorescence melt of hairpins on a sequencing array, two-state fit
- MEASUREMENT_SETUP: sodium 0.088 M
I would appreciate it if you labelled entries yes (1) when folding enthalpy is -30 kcal/mol or higher, otherwise no (0).

Field: example entries. Status: answers known.
[
  {
    "ORDERED_RESIDUES": "CGACTCCGGAAACGGTCG (((..(((....))))))",
    "ANSWER_LABEL": "yes (1)"
  },
  {
    "ORDERED_RESIDUES": "GCCATTCGAAAGAAGGGC (((.(((....))).)))",
    "ANSWER_LABEL": "no (0)"
  },
  {
    "ORDERED_RESIDUES": "GCAAAGCGAAAGCCTGGC ((.(.((....)).).))",
    "ANSWER_LABEL": "yes (1)"
  }
]

Evaluate GACCATACGAAAGTAGTC (((..(((....)))))) : folding enthalpy at minimum -30 kcal/mol?
yes (1)

I'd appreciate it if you could say whether GCAGCCGAAAGGCTCTGC ((((((....)))..))) has folding enthalpy at least equal to -30 kcal/mol.
yes (1)

Entry GGCATCGCGAAAGCGGCC (((..(((....)))))) : is its folding enthalpy no less than -30 kcal/mol?
yes (1)

Does folding enthalpy meet or surpass -30 kcal/mol for CGATGCGGAAACGCTTCG (((.(((....))).))) ?
no (0)

Does the sequence GCAAAGCGAAAGCTGCGC ((..(((....)))..)) have recorded folding enthalpy that is -30 kcal/mol or more?
yes (1)

Exam item: decide whether the reported folding enthalpy for GATCGGGGCACCGATC ((((((....)))))) is at least -30 kcal/mol.
no (0)

Hi team, for GATCACGACTGTGATC ((((((....)))))) , is the recorded folding enthalpy at or above -30 kcal/mol?
no (0)

Assess whether reported folding enthalpy for GTAGGTCCGAAAGGATAC (((..(((....)))))) sits at -30 kcal/mol or higher.
yes (1)

----------
- TEST_SUMMARY: folding enthalpy; higher = less favourable; fluorescence melt of hairpins on a sequencing array, two-state fit
- MEASUREMENT_SETUP: sodium 0.088 M
QUANTITY_NAME: folding enthalpy

[
  {
    "ORDERED_RESIDUES": "GTTGAAGGAAACCTCAAC (((((.(....).)))))",
    "folding enthalpy": "-31 kcal/mol"
  },
  {
    "ORDERED_RESIDUES": "GGTCAGGGAAACCTGGTC (..((((....))))..)",
    "folding enthalpy": "-15.9 kcal/mol"
  },
  {
    "ORDERED_RESIDUES": "GCGAATTTTCGC ((((....))))",
    "folding enthalpy": "-29.5 kcal/mol"
  },
  {
    "ORDERED_RESIDUES": "GGGCCGGGAAACCAGCCC ((((.((....)).))))",
    "folding enthalpy": "-49.3 kcal/mol"
  }
]

Item: GTACTCGAAAGAGTATAC ((((((....)))..))) | folding enthalpy: -13.3 kcal/mol

Documented folding enthalpy of GGAATCCGAAAGGAATCC (((.(((....))).))) : -31.2 kcal/mol

folding enthalpy in this record for GGGTACGGAAACACACCC ((((..(....)..)))) : -21.9 kcal/mol

Entry GGTTGTGGAAACATAACC ((((.((....)).)))) — recorded folding enthalpy = -37 kcal/mol

# folding enthalpy (sequence: GCGGCACCCCGC ((((....)))) ) is -24.8 kcal/mol

Measured folding enthalpy, GACTTCGGAAACGAAATC ((.((((....)))).)) : -22.9 kcal/mol

Measured folding enthalpy, GCGTCTACGAAAGTACGC (((..(((....)))))) : -28.4 kcal/mol

Please fill in: folding enthalpy reported for GGAATCGGAAACGGTTTC (.((.((....)).)).) = -26.3 kcal/mol

Data provenance: the array DNA melting data of Ke et al. (doi:10.1101/2024.01.08.574731)
